- Test system: S. aureus ATCC 29213
- method-notes: MIC by broth microdilution (CLSI), quality control strain S. aureus ATCC 29213
- Type: cell-based, Staphylococcus aureus
- cond: Staphylococcus aureus, ATCC29213, S. aureus ATCC 29213; multiple values when multiple MIC assays were conducted
metric-name: MIC (µg/mL)

Observe how each entry below is paired with its result.
# compound, unit-symbol, MIC
records = [
    ("COc1ccc2ncc(=O)n(CC[C@H]3OC[C@H](NCc4cc5c(cn4)OCCO5)CO3)c2c1", "µg/mL", 8),
    ("COc1ccc2nccc(CC[C@H]3OC[C@H](NCc4cc5c(cn4)OCCC5)CO3)c2c1", "µg/mL", 1),
    ("COc1ccc2nccc(CC[C@H]3OC[C@H](NCc4ccc(OC)nc4)CO3)c2c1", "µg/mL", 32),
    ("COc1ccc2ncc(F)c(C(O)C[C@H]3OC[C@H](NCc4cc5c(cn4)OCCC5)CO3)c2c1 (some centres unmarked)", "µg/mL", 0.5),
    ("COc1ccc2nccc(CC[C@H]3OC[C@H](NCc4ccc(C)cc4)CO3)c2c1", "µg/mL", 1),
]

I. COc1cccc(CN[C@H]2CO[C@H](CCc3ccnc4ccc(OC)cc34)OC2)c1
II. COc1ccc2nccc(CC[C@H]3OC[C@H](NCc4cc(F)ccc4F)CO3)c2c1
Exercise: For the two items I and II , which reports the higher MIC value? // respond with label for picked entry
Solution: II
(II: 64 µg/mL, I: 16 µg/mL)

P. COc1ccc2nccc(CC[C@H]3OC[C@H](NCc4ccc(C)cn4)CO3)c2c1
Q. COc1ccc2nccc(CC[C@H]3OC[C@H](NCc4ccc(F)cc4F)CO3)c2c1
Exercise: For the two items P and Q , which reports the higher MIC value? // respond with label for picked entry
Solution: Q
(Q: 64 µg/mL, P: 4 µg/mL)

P. COc1ccc2ncc(F)c(CC[C@H]3OC[C@H](NCc4ccc(Cl)c(Cl)c4)CO3)c2n1
Q. COc1ccc2nccc(/C=C/[C@H]3OC[C@H](NCc4ccc5c(c4)OCCO5)CO3)c2c1
Exercise: Which entry shows the lesser value of MIC here, P or Q ? // respond with label for picked entry
Solution: P
(P: 0.25 µg/mL, Q: 1 µg/mL)

###

Quick reference: pIC50 of the listed items.
- system: Staphylococcus aureus Topo IV (Staphylococcus aureus, UniProt P0C1S7+P0C1U9)
- Construct: purchased Inspiralis, Norwich, UK
- method-notes: Staphylococcus aureus Topo IV decatenation assay
- Format: biochemical
The meaning of pIC50 here: minus log10 of the concentration in molar units.

Observe how each entry below is paired with its result.
# molecule, pIC50
rows = [
    ("COc1ccc2nccc(CC[C@H]3OC[C@H](NCc4ccc5c(c4)OCCO5)CO3)c2c1", 4.86),
    ("COc1ccc2ncc(F)c(CC[C@H]3OC[C@H](NCc4ccc5c(c4)OCCO5)CO3)c2n1", 6.01),
]

Now take the following molecule into account.
Exercise: Could you share which pIC50 value was measured for COc1ccc2ncc(F)c(C(O)C[C@H]3OC[C@H](NCc4ccc5c(c4)OCCO5)CO3)c2c1 (stereo partly shown) ?
Solution: 5.10

###

- system: Staphylococcus aureus gyrase (Staphylococcus aureus, UniProt P0A0K8+P20831)
- Construct: purchased Inspiralis, Norwich, UK
- method-notes: Staphylococcus aureus gyrase supercoiling assay
- Type: biochemical
Quick reference: IC50 of the listed items.
Your answer is read as nM, so omit the unit and give the number.

# compound, system, IC50 / nM
records = [
    ("COc1ccc2ncc(F)c(CC[C@H]3OC[C@H](NCc4ccc5c(c4)OCCO5)CO3)c2n1", "Staphylococcus aureus gyrase (Staphylococcus aureus, UniProt P0A0K8+P20831)", 30),
    ("COc1ccc2ncc(F)c(C(O)C[C@H]3OC[C@H](NCc4ccc5c(c4)OCCO5)CO3)c2c1 (stereo partly drawn)", "Staphylococcus aureus gyrase (Staphylococcus aureus, UniProt P0A0K8+P20831)", 90),
]

Now take the following compound into account.
Exercise: Could you share which IC50 value was measured for "COc1ccc2ncc(F)c(CC[C@H]3OC[C@H](NCc4ccc5c(n4)NC(=O)CO5)CO3)c2n1" ?
Solution: 130

###

- system: human topo II (Homo sapiens, UniProt P11388)
- Construct: purchased Inspiralis, Norwich, UK
- Sequence (P11388 whole entry): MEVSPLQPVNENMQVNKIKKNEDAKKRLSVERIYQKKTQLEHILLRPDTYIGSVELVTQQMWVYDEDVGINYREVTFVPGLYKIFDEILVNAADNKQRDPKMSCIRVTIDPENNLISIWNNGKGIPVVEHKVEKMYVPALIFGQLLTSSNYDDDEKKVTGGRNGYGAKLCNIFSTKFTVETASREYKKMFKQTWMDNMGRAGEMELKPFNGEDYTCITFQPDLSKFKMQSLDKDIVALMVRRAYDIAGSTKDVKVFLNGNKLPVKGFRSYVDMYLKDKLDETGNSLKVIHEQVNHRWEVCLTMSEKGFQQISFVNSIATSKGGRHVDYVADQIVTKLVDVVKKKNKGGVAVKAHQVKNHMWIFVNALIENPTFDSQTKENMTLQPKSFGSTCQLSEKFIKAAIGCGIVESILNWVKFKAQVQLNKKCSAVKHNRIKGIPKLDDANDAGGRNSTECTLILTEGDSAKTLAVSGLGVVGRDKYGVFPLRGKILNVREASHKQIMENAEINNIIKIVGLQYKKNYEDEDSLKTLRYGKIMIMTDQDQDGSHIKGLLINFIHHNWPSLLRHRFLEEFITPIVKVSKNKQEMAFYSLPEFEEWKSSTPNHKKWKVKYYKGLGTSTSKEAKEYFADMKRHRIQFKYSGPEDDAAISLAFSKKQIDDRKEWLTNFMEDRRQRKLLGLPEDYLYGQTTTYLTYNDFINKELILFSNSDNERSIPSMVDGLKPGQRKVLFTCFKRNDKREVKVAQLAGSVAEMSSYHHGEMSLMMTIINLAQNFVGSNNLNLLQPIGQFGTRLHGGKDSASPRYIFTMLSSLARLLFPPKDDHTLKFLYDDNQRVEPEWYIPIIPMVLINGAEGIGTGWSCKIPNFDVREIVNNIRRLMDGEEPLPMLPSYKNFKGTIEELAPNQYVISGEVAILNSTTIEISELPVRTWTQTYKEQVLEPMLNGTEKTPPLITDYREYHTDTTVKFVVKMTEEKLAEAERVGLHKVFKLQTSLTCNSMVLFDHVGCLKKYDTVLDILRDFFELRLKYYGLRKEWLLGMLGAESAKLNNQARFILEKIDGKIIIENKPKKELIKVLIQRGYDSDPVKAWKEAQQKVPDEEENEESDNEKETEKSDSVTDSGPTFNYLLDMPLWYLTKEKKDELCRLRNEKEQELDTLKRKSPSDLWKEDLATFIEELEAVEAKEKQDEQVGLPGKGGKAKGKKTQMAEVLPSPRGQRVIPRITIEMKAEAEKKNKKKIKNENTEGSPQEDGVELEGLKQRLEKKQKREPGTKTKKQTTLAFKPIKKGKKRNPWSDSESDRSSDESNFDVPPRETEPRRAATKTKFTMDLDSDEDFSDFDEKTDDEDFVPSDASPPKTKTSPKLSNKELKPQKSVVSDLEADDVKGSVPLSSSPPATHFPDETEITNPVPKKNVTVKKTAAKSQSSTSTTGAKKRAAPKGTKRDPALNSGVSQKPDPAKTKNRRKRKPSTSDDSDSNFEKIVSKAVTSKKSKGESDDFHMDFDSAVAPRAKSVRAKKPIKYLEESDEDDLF
- method-notes: Topoisomerase II (alpha) decatenation assay
- Type: biochemical
- cond: activity remaining at 100 μM compound; read-out: hTopoll (% activity remaining at 100 μM)
Quick reference: remaining activity at 100 µM of the listed items.
Your answer is read as %, so omit the unit and give the number.

Observe how each entry below is paired with its result.
# molecule, remaining activity at 100 µM / %
records = [
    ("COc1ccc2ncc(F)c(CC[C@H]3OC[C@H](NCc4ccc(F)c(F)c4)CO3)c2n1", 90.7),
    ("COc1ccc2ncc(F)c(CC[C@H]3OC[C@H](NCc4ccc5c(n4)NC(=O)CS5)CO3)c2n1", 95.7),
    ("COc1ccc2ncc(F)c(C(O)C[C@H]3OC[C@H](NCc4ccc5c(c4)OCCO5)CO3)c2c1 (stereo partly shown)", 77.4),
]

Now take the following molecule into account.
Exercise: Could you share which remaining activity at 100 µM value was measured for "COc1ccc(CN[C@H]2CO[C@H](CCc3ccnc4ccc(OC)cc34)OC2)cc1" ?
Solution: 98.7

###

- system: Staphylococcus aureus gyrase (Staphylococcus aureus, UniProt P0A0K8+P20831)
- Construct: purchased Inspiralis, Norwich, UK
- method-notes: Staphylococcus aureus gyrase supercoiling assay
- Assay type: biochemical
- cond: S. aureus DNA gyrase supercoiling; read-out: Gyrase IC50
Quick reference: IC50 of the listed items.
Your answer is read as nM, so omit the unit and give the number.

Observe how each entry below is paired with its result.
# compound, IC50, nM
data = [
    ("COc1ccc2nccc(CC[C@H]3OC[C@H](NCc4ccc(Cl)cc4)CO3)c2c1 [AB-0052]", 1160),
    ("COc1ccc2nccc(CC[C@H]3OC[C@H](NCc4cc5c(cn4)OCCO5)CO3)c2c1 [AB-0013]", 360),
]

Now take the following compound into account.
Exercise: Could you share which IC50 value was measured for COc1ccc2ncc(=O)n(CC[C@H]3OC[C@H](NCc4ccc5c(c4)OCCO5)CO3)c2c1 [AB-0002] ?
Solution: 2010

###

Quick reference: remaining activity at 100 µM of the listed items.
- system: human topo II (Homo sapiens, UniProt P11388)
- Construct: purchased Inspiralis, Norwich, UK
- method-notes: Topoisomerase II (alpha) decatenation assay
- Assay type: biochemical
- cond: activity remaining at 100 μM compound; read-out: hTopoll (% activity remaining at 100 μM)
Your answer is read as %, so omit the unit and give the number.

Exercise: Could you share which remaining activity at 100 µM value was measured for COc1ccc2ncc(F)c(CC[C@H]3OC[C@H](NCc4cc5c(cn4)OCCO5)CO3)c2n1 [AB-0061] ?
Solution: 69.6

Exercise: Could you share which remaining activity at 100 µM value was measured for COc1ccc2ncc(F)c(C(O)C[C@H]3OC[C@H](NCc4cc5c(cn4)OCCO5)CO3)c2c1 (stereo partly shown) [AB-0046] ?
Solution: 88.3

Exercise: Could you share which remaining activity at 100 µM value was measured for COc1ccc2nccc(CC[C@H]3OC[C@H](NCc4ccc(Cl)c(F)c4)CO3)c2c1 [AB-0030] ?
Solution: 97.8

Exercise: Could you share which remaining activity at 100 µM value was measured for COc1ccc2ncc(F)c(C(O)C[C@H]3OC[C@H](NCc4cc5c(cn4)OCCC5)CO3)c2c1 (stereo partly shown) [AB-0020] ?
Solution: 92.9

Exercise: Could you share which remaining activity at 100 µM value was measured for COc1ccc2nccc(CC[C@H]3OC[C@H](NCc4cc5c(cn4)OCCC5)CO3)c2c1 [AB-0014] ?
Solution: 93.8

###

- Test system: S. aureus ATCC 29213
- method-notes: MIC by broth microdilution (CLSI), quality control strain S. aureus ATCC 29213
- Assay type: cell-based, Staphylococcus aureus
- cond: Staphylococcus aureus, ATCC29213, S. aureus ATCC 29213; multiple values when multiple MIC assays were conducted
metric-name: MIC (µg/mL)

Observe how each entry below is paired with its result.
# compound, unit-symbol, numeric-readout
data = [
    ("COc1ccc2nccc(CC[C@H]3OC[C@H](NCc4cc5c(cn4)OCCO5)CO3)c2c1", "µg/mL", 1),
    ("COc1ccc2nccc(CC[C@H]3OC[C@H](NCc4ccc5c(c4)OCO5)CO3)c2c1", "µg/mL", 2),
    ("COc1ccc2nccc(CC[C@H]3OC[C@H](NC/C=C/c4ccccc4)CO3)c2c1", "µg/mL", 1),
    ("COc1ccc2ncc(F)c(CC[C@H]3OC[C@H](NCc4ccc5c(n4)NC(=O)CO5)CO3)c2n1", "µg/mL", 0.125),
    ("COc1ccc2ncc(F)c(CC[C@H]3OC[C@H](NCc4ccc(F)c(F)c4)CO3)c2n1", "µg/mL", 2),
]

I. COc1ccc2nccc(CC[C@H]3OC[C@H](NCc4ccc(C(F)F)cc4)CO3)c2c1
II. COc1ccc2nccc(CC[C@H]3OC[C@H](NCc4ccc(OC(F)F)cc4)CO3)c2c1
III. COc1ccc2nccc(CC[C@H]3OC[C@H](NCc4ccc(Cl)cn4)CO3)c2c1
IV. COc1ccc2nccc(CC[C@H]3OC[C@H](NCc4cccc(F)c4F)CO3)c2c1
Exercise: Sort low-to-high on MIC, please. Please list the labels in the order you were asked to rank them.
Solution: I, II, III, IV
(I: 2 µg/mL, II: 4 µg/mL, III: 8 µg/mL, IV: 64 µg/mL)
